# Test system: 186277-243-T-J2-PDC complex spheroid growth;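 note: luminescent signal used as a stand-in for viable cell amount; spheroids exposed to compounds for seven days before the viability read; 100% = DMSO vehicle control wells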
# experimental-protocol: Anticancer human tumor 186277-243-T-J2-PDC patient-derived colon adenocarcinoma cell line growth inhibition [AhR]
# measurement-context: second compound 3.16 µM; first compound 10 µM; hits give low values
measured-quantity: viability, T/C (%)
Use % as the unit, but write only the number.

compound | viability, T/C / %
COc1cc(Nc2ncc3c(n2)-c2ccc(Cl)cc2C(c2c(F)cccc2OC)=NC3)ccc1C(=O)O + Cc1cncc(-c2nc(NCCc3c[nH]c4ccccc34)c3ncn(C(C)C)c3n2)c1 | 71.5

Problem: // Input: CC1COCCN1c1cc(C2(S(C)(=N)=O)CC2)nc(-c2ccnc3[nH]ccc23)n1 (centres undefined) + CC(CO)NC(=O)c1cc(-c2ccc(Cl)cc2)nn(-c2cnn(C)c2)c1=O . Output its viability, T/C only.
Solution: 2.86

Problem: Quote viability, T/C reported for O=C(c1cc(Cc2n[nH]c(=O)c3ccccc23)ccc1F)N1CCN(C(=O)C2CC2)CC1 + CC(CO)NC(=O)c1cc(-c2ccc(Cl)cc2)nn(-c2cnn(C)c2)c1=O please.
Solution: 41.7

Problem: Consider the compound CC1COCCN1c1cc(C2(S(C)(=N)=O)CC2)nc(-c2ccnc3[nH]ccc23)n1 (centres undefined) + Cc1cncc(-c2nc(NCCc3c[nH]c4ccccc34)c3ncn(C(C)C)c3n2)c1 . State its measured viability, T/C.
Solution: 8.1

Problem: # return recorded viability, T/C for entry COc1cc(C2c3cc4c(cc3C(OC3OC5COC(C)OC5C(O)C3O)C3COC(=O)C23)OCO4)cc(OC)c1O (centres undefined) + Cc1ccccc1N=Nc1ccc(NC(=O)c2ccnn2C)c(C)c1
Solution: 41.2

Problem: Supply reported viability, T/C belonging to this compound: CC(C)c1c(-c2ccccc2)nc2c(C#N)c[nH]n2c1=O + Cc1ccccc1N=Nc1ccc(NC(=O)c2ccnn2C)c(C)c1
Solution: 98.7

Problem: Could you please provide reported viability, T/C for COc1cc(C2c3cc4c(cc3C(OC3OC5COC(C)OC5C(O)C3O)C3COC(=O)C23)OCO4)cc(OC)c1O (centres undefined) + CC(CO)NC(=O)c1cc(-c2ccc(Cl)cc2)nn(-c2cnn(C)c2)c1=O ? Thanks!
Solution: 7.04

Just for reference, PubChem BioAssay AID1918991 is where these values come from.
